- System: H9c2 cardiomyocytes, 2-deoxyglucose stress, ATP luminescence, 2 h
- ASSAY TEXT: H9c2 cell survival under 2-deoxyglucose stress – uHTS hits, dose response (AID 588780)
Calls of active or inactive are those of the source.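 The calls were made as follows: active = compounds whose fitted half-maximal concentration in the cell-protection dose series is at or below a set limit; inactive = the rest.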
Labels: active, inactive

# COMPOUND, CATEGORY
measured = [
    ("O=C(CNC(=O)c1cccc(F)c1)N/N=C/c1cc(Br)ccc1OC(=O)/C=C/c1ccco1", "inactive"),
    ("O=C(NC1CCCCC1)C(c1ccc2ncccc2c1)N(Cc1ccco1)C(=O)c1ccc2c(c1)OCCO2 (centres undefined)", "inactive"),
    ("CC/C(C)=N\\N=C\\c1c(O)n(CC)c2cc(C3=NNC(=O)CC3)ccc12", "inactive"),
    ("O=C(NCc1ccco1)C(c1ccccc1)N(C(=O)Cc1cccs1)c1ccccc1F (centres undefined)", "inactive"),
    ("COc1ccc(-c2ccc3c(c2)S(=O)(=O)c2cccc(C(=O)NC[C@@H]4CCCO4)c2C3=O)cc1OC", "active"),
    ("CCOc1cc(/C=C/c2ccc3cccc([N+](=O)[O-])c3n2)ccc1OCC(=O)N(C)C", "active"),
    ("COc1cc(/C=C/c2nc(-c3ccccc3O)n[nH]2)cc(OC)c1OC", "inactive"),
    ("COc1ccc(OC)c(C(=O)COC(=O)c2ccc([N+](=O)[O-])o2)c1", "inactive"),
    ("CCCOc1ccc2[nH]c(C(=O)N/N=C/c3cc(OC)c(OC)c(OC)c3)cc2c1", "active"),
]

----------
- Tested on: H9c2 cardiomyocytes, 2-deoxyglucose stress, ATP luminescence, 2 h
- ASSAY TEXT: H9c2 cell survival under 2-deoxyglucose stress – uHTS hits, dose response (AID 588780)
Activity calls are given as the source filed them.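 The calls were made as follows: active = compounds whose fitted half-maximal concentration in the cell-protection dose series is at or below a set limit; inactive = the rest.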
Labels: active, inactive

# COMPOUND, CATEGORY
rows = [
    ("O=C(COC(=O)c1ccc([N+](=O)[O-])o1)Nc1cccc(S(=O)(=O)N2CCCCC2)c1", "inactive"),
    ("CCOc1ccc(CCNC(=O)c2cc3c(C)nccc3[nH]c2=O)cc1OCC", "active"),
    ("c1ccc(CN2CCN(CCCNc3ccc4nnc(-c5ccccc5)n4n3)CC2)cc1", "active"),
    ("O=C(Cn1[nH]c(=O)c2ccccc2c1=O)NNC(=O)c1ccccc1", "active"),
    ("O=C(CNC(=O)c1ccccc1F)N/N=C/c1cc(Br)ccc1OC(=O)/C=C/c1ccco1", "inactive"),
    ("Cc1ccc(C)c2[nH]c(=O)c(CN(Cc3ccc4c(c3)OCO4)Cc3nnnn3Cc3ccco3)cc12", "active"),
    ("CCSc1nnc(NC(=O)C2Cc3ccccc3CN2S(=O)(=O)CC)s1 (stereo not given)", "inactive"),
    ("CCOc1ccccc1C(=O)N/N=C/c1cccc2cccnc12", "inactive"),
    ("CCc1cc2cccc(C)c2nc1SCC(=O)N1CCN(C(=O)c2ccco2)CC1", "inactive"),
    ("Cc1c(C#N)c(N)nc2c3c(sc12)NC(=O)CC3c1ccc(Cl)cc1 (stereo not given)", "active"),
]

----------
- Tested on: H9c2 cardiomyocytes, 2-deoxyglucose stress, ATP luminescence, 2 h
- ASSAY TEXT: H9c2 cell survival under 2-deoxyglucose stress – uHTS hits, dose response (AID 588780)
Activity calls are given as the source filed them.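 Rule for the calls: active = compounds whose fitted half-maximal concentration in the cell-protection dose series is at or below a set limit; inactive = the rest.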
Labels: 1 (yes) = active, 0 (no) = inactive

# COMPOUND, CATEGORY
rows = [
    ("COCCCn1c(C)nc2c(c1=O)c1nc3ccccc3nc1n2CCc1ccccc1", "0 (no)"),
    ("CCOC(=O)c1ccc(NC(=O)c2nc[nH]c2C(=O)NCCCCCNC(=O)OC(C)(C)C)cc1", "1 (yes)"),
    ("Cc1c(C#N)c(N)nc2c3c(sc12)NC(=O)CC3c1ccccc1 (stereo unspecified)", "0 (no)"),
    ("O=C(Nc1ccccc1)c1nc[nH]c1C(=O)NCCCCCCNC(=O)c1[nH]cnc1C(=O)Nc1ccccc1", "1 (yes)"),
    ("Cc1cc(NC(=O)c2cccs2)cc(-c2nc3ncccc3o2)c1O", "0 (no)"),
    ("O=C(CCCSc1ccccc1)Nc1nc(-c2ccccn2)cs1", "0 (no)"),
    ("O=C(O)c1ccc2c(c1)S(=O)(=O)c1cc(N3CCN(c4cnccn4)CC3)ccc1C2=O", "0 (no)"),
    ("COc1ccc(-c2cc(NC=O)c3ncc(-c4cccc(C(C)=O)c4)n3c2)cc1", "0 (no)"),
    ("CCOC(=O)N1CCN(S(=O)(=O)c2ccc(C(=O)NNc3nc4c(C)cccc4s3)cc2)CC1", "0 (no)"),
    ("Cc1[nH]c(-c2ccccn2)nc(=S)c1Cl", "0 (no)"),
    ("Cc1ccccc1C(C(=O)NCc1ccccc1)N(Cc1ccco1)C(=O)c1ccccn1 (stereo unspecified)", "1 (yes)"),
    ("COC(=O)c1ccc2c(=O)[nH]c(COC(=O)c3[nH]c(C)c(C(C)=O)c3C)nc2c1", "0 (no)"),
    ("COc1ccc(CCNc2nc(-c3cccnc3)nc3ccccc23)cc1OC", "0 (no)"),
    ("O=C(N/N=C/c1ccc2c(c1)OCO2)c1ccc(NC(=O)c2ccccc2Cl)cc1", "1 (yes)"),
    ("COc1ccc(-c2cc(-c3nnc(COC(=O)C4CC4)o3)c3ccccc3n2)cc1OC", "1 (yes)"),
    ("CCC(CC)C(=O)Nc1cc(C)c2c(=O)oc3ccccc3c2n1", "0 (no)"),
    ("COc1cccc(-c2nnc3sc(-c4ccccn4)nn23)c1", "0 (no)"),
    ("CCOC(=O)N1CCC(N2C(=O)c3ccccc3C2Nc2cc(OC)c(OC)c(OC)c2)CC1 (stereo unspecified)", "0 (no)"),
    ("COc1cccc(/C=N/Nc2nc3ccccc3n3cnnc23)c1", "0 (no)"),
    ("O=c1[nH]c2ccccc2c2ccccc12", "0 (no)"),
    ("COc1cccc(-c2cnc3c(NC=O)cc(-c4cccc(NC(C)=O)c4)cn23)c1", "0 (no)"),
    ("OC1CCN(c2c3c(nc4cc(-c5cccc(F)c5)nn24)CCCC3)CC1", "1 (yes)"),
    ("CC(C)(C)OC(=O)C[C@@H]1C/C=C\\C[C@@H](CC(=O)N[C@H](CO)Cc2ccccc2)C(=O)NC[C@@H](c2ccccc2)OC1=O", "0 (no)"),
    ("Oc1ccc(Br)cc1C=Nc1ccc2c3c(cccc13)CC2", "0 (no)"),
    ("Cn1c(=O)[nH]c(=O)c2c1nc(NCCc1ccccc1)n2CC(O)COc1ccccc1 (stereo unspecified)", "0 (no)"),
    ("O=C(Nc1ccc2oc(-c3ccccc3F)nc2c1)c1ccc([N+](=O)[O-])o1", "0 (no)"),
    ("O=C(N/N=C/c1ccncc1)c1ccc(COc2cccc3cccnc23)cc1", "0 (no)"),
    ("CCn1c(=O)c(C(=O)NC(C)c2ccccc2)c(O)c2ccccc21 (stereo unspecified)", "0 (no)"),
    ("CNC(=O)c1ccc(-c2sc3nc(N4CCOCC4)c4c(c3c2N)CC(C)(C)OC4)o1", "1 (yes)"),
    ("O=C(Nc1ccc(CN2CCOCC2)cc1)c1ccc(-c2cccc([N+](=O)[O-])c2)o1", "0 (no)"),
    ("CNc1ccccc(C(=O)/C=C/c2ccccc2OC)c1=O", "0 (no)"),
    ("Nc1cc2[nH]c(=O)c3ccccc3c2cc1[N+](=O)[O-]", "1 (yes)"),
    ("COC(=O)c1ccccc1NC(=O)/C=C/c1cc(OC)c(OC)c(OC)c1", "1 (yes)"),
    ("O=C(c1cc(=O)[nH]c2ccccc12)N1CCN(S(=O)(=O)c2ccc(Cl)cc2)CC1", "0 (no)"),
    ("O=C1OCCN1C(=O)[C@H]1[C@H](c2ccc([N+](=O)[O-])cc2)C(c2cccc(Cl)c2)=NN1c1ccc(Br)cc1", "0 (no)"),
    ("COc1ccc(OCC(=O)N/N=C/c2cccc3cccnc23)cc1", "0 (no)"),
    ("O=C/C(=C\\Nc1ccccn1)c1nc2cc(Cl)ccc2o1", "0 (no)"),
    ("O=C(CSc1nc2ccccc2o1)NCc1n[nH]c(=O)c2ccccc12", "1 (yes)"),
    ("CCCn1c(=O)c2[nH]c(-c3ccc(OCC(=O)Nc4ccc(C#N)cc4)cc3)nc2n(CCC)c1=O", "0 (no)"),
    ("COC(=O)c1c(C)[nH]c(C(=O)COc2ccc3ccc(=O)oc3c2)c1C", "0 (no)"),
    ("O=C(c1ccc(-c2nc3ccccc3s2)o1)N1CCN(c2ccccc2O)CC1", "1 (yes)"),
]

Sourced from PubChem BioAssay AID588780
